test_context: in ethanol, 288.15 K

- compound_string: "CSCC[C@H](NC(C)=O)C(=O)O"
  solubility (mole fraction): 0.121

###

test_context: in ethyl acetate, 283.15 K

- compound_string: "CSCC[C@H](NC(C)=O)C(=O)O"
  solubility (mole fraction): 0.00553

###

test_context: in n-propanol, 308.15 K

- compound_string: "CSCC[C@H](NC(C)=O)C(=O)O"
  solubility (mole fraction): 0.191

###

test_context: in acetonitrile, 303.15 K
experimental_endpoint: solubility (mole fraction)

- compound_string: "CSCC[C@H](NC(C)=O)C(=O)O"
  reading: 0.0238

###

test_context: in methyl acetate, 293.15 K

- compound_string: "CSCC[C@H](NC(C)=O)C(=O)O"
  solubility (mole fraction): 0.0113

###

test_context: in n-butanol, 318.15 K

- compound_string: "CSCC[C@H](NC(C)=O)C(=O)O"
  solubility (mole fraction): 0.207

###

test_context: in ethanol, 323.15 K

- compound_string: "CSCC[C@H](NC(C)=O)C(=O)O"
  solubility (mole fraction): 0.409

###

test_context: in 2-butanone, 293.15 K

- compound_string: "CSCC[C@H](NC(C)=O)C(=O)O"
  solubility (mole fraction): 0.0316

###

test_context: in ethyl acetate, 288.15 K
experimental_endpoint: solubility (mole fraction)

- compound_string: "CSCC[C@H](NC(C)=O)C(=O)O"
  experimental_endpoint: "solubility (mole fraction)"
  reading: 0.00645

###

test_context: in acetonitrile, 318.15 K

- compound_string: "CSCC[C@H](NC(C)=O)C(=O)O"
  solubility (mole fraction): 0.0912

###

test_context: in dimethyl carbonate, 303.15 K
experimental_endpoint: solubility (mole fraction)

- compound_string: "CSCC[C@H](NC(C)=O)C(=O)O"
  experimental_endpoint: "solubility (mole fraction)"
  reading: 0.00614

###

test_context: in n-butanol, 313.15 K

- compound_string: "CSCC[C@H](NC(C)=O)C(=O)O"
  solubility (mole fraction): 0.175

###

test_context: in acetonitrile, 323.15 K

- compound_string: "CSCC[C@H](NC(C)=O)C(=O)O"
  solubility (mole fraction): 0.154

###

test_context: in dimethyl carbonate, 318.15 K

- compound_string: "CSCC[C@H](NC(C)=O)C(=O)O"
  solubility (mole fraction): 0.0151

###

test_context: in n-butanol, 298.15 K

- compound_string: "CSCC[C@H](NC(C)=O)C(=O)O"
  solubility (mole fraction): 0.103

###

test_context: in n-pentanol, 288.15 K

- compound_string: "CSCC[C@H](NC(C)=O)C(=O)O"
  solubility (mole fraction): 0.05

###

test_context: in n-butanol, 303.15 K
experimental_endpoint: solubility (mole fraction)

- compound_string: "CSCC[C@H](NC(C)=O)C(=O)O"
  reading: 0.121

###

test_context: in methyl acetate, 308.15 K

- compound_string: "CSCC[C@H](NC(C)=O)C(=O)O"
  solubility (mole fraction): 0.026

###

test_context: in acetone, 288.15 K

- compound_string: "CSCC[C@H](NC(C)=O)C(=O)O"
  solubility (mole fraction): 0.0524

###

test_context: in n-butanol, 323.15 K

- compound_string: "CSCC[C@H](NC(C)=O)C(=O)O"
  solubility (mole fraction): 0.242

###

test_context: in acetonitrile, 283.15 K

- compound_string: "CSCC[C@H](NC(C)=O)C(=O)O"
  solubility (mole fraction): 0.00684

###

test_context: in n-pentanol, 283.15 K
experimental_endpoint: solubility (mole fraction)

- compound_string: "CSCC[C@H](NC(C)=O)C(=O)O"
  experimental_endpoint: "solubility (mole fraction)"
  reading: 0.0417

###

test_context: in n-pentanol, 298.15 K

- compound_string: "CSCC[C@H](NC(C)=O)C(=O)O"
  solubility (mole fraction): 0.0755

###

test_context: in n-propanol, 323.15 K
experimental_endpoint: solubility (mole fraction)

- compound_string: "CSCC[C@H](NC(C)=O)C(=O)O"
  reading: 0.327

###

test_context: in 2-butanone, 313.15 K

- compound_string: "CSCC[C@H](NC(C)=O)C(=O)O"
  solubility (mole fraction): 0.112

###

test_context: in dimethyl carbonate, 288.15 K

- compound_string: "CSCC[C@H](NC(C)=O)C(=O)O"
  solubility (mole fraction): 0.00268

###

test_context: in n-butyl acetate, 308.15 K
experimental_endpoint: solubility (mole fraction)

- compound_string: "CSCC[C@H](NC(C)=O)C(=O)O"
  reading: 0.00833

###

test_context: in n-propyl acetate, 323.15 K
experimental_endpoint: solubility (mole fraction)

- compound_string: "CSCC[C@H](NC(C)=O)C(=O)O"
  reading: 0.021

###

test_context: in n-butanol, 293.15 K

- compound_string: "CSCC[C@H](NC(C)=O)C(=O)O"
  solubility (mole fraction): 0.084

###

test_context: in ethyl acetate, 313.15 K

- compound_string: "CSCC[C@H](NC(C)=O)C(=O)O"
  solubility (mole fraction): 0.022

###

test_context: in acetone, 318.15 K

- compound_string: "CSCC[C@H](NC(C)=O)C(=O)O"
  solubility (mole fraction): 0.231

###

test_context: in 2-butanone, 288.15 K
experimental_endpoint: solubility (mole fraction)

- compound_string: "CSCC[C@H](NC(C)=O)C(=O)O"
  reading: 0.0243

###

test_context: in ethanol, 308.15 K
experimental_endpoint: solubility (mole fraction)

- compound_string: "CSCC[C@H](NC(C)=O)C(=O)O"
  experimental_endpoint: "solubility (mole fraction)"
  reading: 0.222

###

test_context: in n-propanol, 303.15 K
experimental_endpoint: solubility (mole fraction)

- compound_string: "CSCC[C@H](NC(C)=O)C(=O)O"
  experimental_endpoint: "solubility (mole fraction)"
  reading: 0.158

###

test_context: in ethyl acetate, 318.15 K
experimental_endpoint: solubility (mole fraction)

- compound_string: "CSCC[C@H](NC(C)=O)C(=O)O"
  reading: 0.0284

###

test_context: in acetonitrile, 308.15 K
experimental_endpoint: solubility (mole fraction)

- compound_string: "CSCC[C@H](NC(C)=O)C(=O)O"
  reading: 0.0354
